Catalogue of Baf3-hPRLR proliferation IC50 readings, one per entry.
Target: T1, human PRLR on cells (human, UniProt P16471 25-622)
T1 sequence: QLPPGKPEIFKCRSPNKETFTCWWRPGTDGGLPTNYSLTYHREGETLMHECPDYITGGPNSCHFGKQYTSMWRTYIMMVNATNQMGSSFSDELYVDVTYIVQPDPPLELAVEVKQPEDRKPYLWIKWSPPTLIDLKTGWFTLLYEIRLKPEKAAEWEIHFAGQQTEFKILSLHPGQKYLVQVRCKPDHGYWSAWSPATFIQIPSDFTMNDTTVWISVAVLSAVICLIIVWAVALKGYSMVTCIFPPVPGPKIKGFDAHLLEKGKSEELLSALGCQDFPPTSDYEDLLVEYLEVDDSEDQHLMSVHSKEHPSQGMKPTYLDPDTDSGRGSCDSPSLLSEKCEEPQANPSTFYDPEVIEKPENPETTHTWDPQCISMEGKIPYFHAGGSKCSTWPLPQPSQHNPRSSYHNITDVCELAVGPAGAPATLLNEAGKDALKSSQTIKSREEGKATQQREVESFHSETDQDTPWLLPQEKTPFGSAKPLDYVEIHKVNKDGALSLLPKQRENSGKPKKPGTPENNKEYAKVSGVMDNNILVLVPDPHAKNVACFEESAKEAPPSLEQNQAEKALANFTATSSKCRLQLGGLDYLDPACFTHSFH
Assay: cell-based or functional assay
outcome_measure: Baf3-hPRLR proliferation IC50

1. Ab20 (antibody, human IgG1, kappa, V domains shown, humanized from Ab6; G1; also called Ab1 HC.1a and Ab1 LC.2) VH: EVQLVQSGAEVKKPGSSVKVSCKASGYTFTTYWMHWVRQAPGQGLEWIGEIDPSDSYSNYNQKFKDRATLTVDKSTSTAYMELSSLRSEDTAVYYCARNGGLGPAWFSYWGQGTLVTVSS VL: EIVMTQSPATLSVSPGERATLSCKASQYVGTAVAWYQQKPGQAPRLLIYSASNRYTGIPARFSGSGSGTEFTLTISSLQSEDFAVYYCQQYSSYPWTFGGGTKVEIKR = 0.2 µg/mL
2. chAb12 (antibody, human IgG1, kappa, V domains shown) VH: DVQLQESGPGLVKPSQSLSLTCTVTGYSITSDYAWNWIRQFPGNKLEWMGYIGYSGRTSFNPSLKSRISITRDTSKNQFFLQLNSVTTEDTATYYCARGGFAMDYWGQGTSVTVSS VL: QIVLTQSPGIMSASPGEKVTMTCSASSSVTYMYWYQQKPRSSPKPWIYLTSNLASGVPARFSGSGSGTSYSLTISSMEAEDGATYYCQQWSSTPPLTFGGGTKLELNT = 10.7 µg/mL
3. Ab21 (antibody, human IgG1, kappa, V domains shown, humanized from Ab6; G1; also called Ab1 HC.1a and Ab1 LC.2a) VH: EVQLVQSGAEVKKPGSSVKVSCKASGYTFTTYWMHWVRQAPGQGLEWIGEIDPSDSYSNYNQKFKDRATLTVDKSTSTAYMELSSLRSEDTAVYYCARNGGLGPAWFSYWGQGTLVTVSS VL: EIVMTQSPATLSVSPGERATLSCKASQYVGTAVAWYQQKPGQSPRLLIYSASNRYTGVPARFSDSGSGTEFTLTISSLQSEDFAVYFCQQYSSYPWTFGGGTKVEIKR = 0.15 µg/mL
